Consider the following variants; for each one, report its polymerase ribozyme fitness (log ratio).
B1: TPR 5TU (parent)
chain: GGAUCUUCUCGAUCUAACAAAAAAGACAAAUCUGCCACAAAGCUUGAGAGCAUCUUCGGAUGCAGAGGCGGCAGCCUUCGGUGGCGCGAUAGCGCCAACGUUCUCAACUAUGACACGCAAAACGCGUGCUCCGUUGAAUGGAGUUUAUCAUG

Variants of: B1
assaySummary: polymerase ribozyme fitness, log enrichment relative to wild type (log ratio); higher = more active; in vitro selection for triplet polymerase activity
Variants at the floor of the assay were thinned out.
Give your answer as a number; write no unit.

Quick check: polymerase ribozyme fitness (log ratio) of A73U G80U ?
-2.82

Quick check: polymerase ribozyme fitness (log ratio) of A26C G117C ?
-2.51

Quick check: polymerase ribozyme fitness (log ratio) of G84A A106U G141U ?
-0.79

Quick check: polymerase ribozyme fitness (log ratio) of G50U A106G ?
0.264

Quick check: polymerase ribozyme fitness (log ratio) of G46U A120U ?
-0.29

Quick check: polymerase ribozyme fitness (log ratio) of C57G G58C A137C ?
-3.85

Quick check: polymerase ribozyme fitness (log ratio) of G84U U104G C125A ?
-3.09

Quick check: polymerase ribozyme fitness (log ratio) of C103G U135A ?
-2.27

Quick check: polymerase ribozyme fitness (log ratio) of A20C U56A C75U ?
-0.244

Quick check: polymerase ribozyme fitness (log ratio) of G58A C72U C76A ?
-1.3

Quick check: polymerase ribozyme fitness (log ratio) of A22U C149U ?
0.0648

Quick check: polymerase ribozyme fitness (log ratio) of C96A G112C ?
-3.31

Quick check: polymerase ribozyme fitness (log ratio) of A12C C38G C85A C116A A120G ?
-1.83

Quick check: polymerase ribozyme fitness (log ratio) of A37G A52C C95U A98C ?
-3.46

Quick check: polymerase ribozyme fitness (log ratio) of C85U C105U A106C U135C G141A ?
-3.94

Quick check: polymerase ribozyme fitness (log ratio) of C14G C99G ?
-3.32

Quick check: polymerase ribozyme fitness (log ratio) of A19G A97U ?
-0.98

Quick check: polymerase ribozyme fitness (log ratio) of G94A G133C ?
-2.71

Quick check: polymerase ribozyme fitness (log ratio) of G94A C114U ?
-1.93

Quick check: polymerase ribozyme fitness (log ratio) of U6G A20U A73U U134C U145G ?
-3.22

Quick check: polymerase ribozyme fitness (log ratio) of U33G C43U A60U G88A U109G U135G G143A ?
-4.09

Quick check: polymerase ribozyme fitness (log ratio) of G50C C125A ?
-2.76

Quick check: polymerase ribozyme fitness (log ratio) of U55G C75U ?
-0.769

Quick check: polymerase ribozyme fitness (log ratio) of A21C C85U ?
-0.369
